# System: TxB2
# Measurement description: Suppressing production of thromboxane B2 (TxB2) from rat peritoneal exudation cells
# Assay type: cell-based
# Condition label: A23187 2 μg/ml, read-out: Production suppressing function IC50, TxB2
Counter-ions that a name gives are not always drawn.
Overview of reported IC50 across a group of compounds:

# Compound, Measurement target, Measurement unit, IC50
data = [
    ("Cc1cc(O)c(C)c2sc(NCc3cccnc3)nc12", "TxB2", "µM", 4.39),
    ("CCc1c(O)c(OC)c(Cc2cccnc2)c2nc(NC)sc12.Cl.Cl [Example 23, dihydrochloride]", "TxB2", "µM", 0.33),
    ("Cc1c(O)c(Cc2cccnc2)c2sc(N)nc2c1C.Cl.Cl [Example 15, dihydrochloride]", "TxB2", "µM", 5.31),
    ("Cc1c(O)c(C)c2sc(NCc3cccnc3)nc2c1C", "TxB2", "µM", 1.95),
    ("COc1cc2nc(NCc3cccnc3)sc2c(OC)c1O", "TxB2", "µM", 5.46),
    ("CCc1c(O)c(OC)c(Cc2cccnc2)c2nc(N)sc12 [Example 22, dihydrochloride]", "TxB2", "µM", 0.18),
]
